In this section we review reported Ki values for a set of compounds.
# TARGET_ENTITY: human α2β3γ2 GABAARs (benzodiazepine site) (Homo sapiens (Human), UniProt P18507+P47869)
# Sequence (P47869 29-451): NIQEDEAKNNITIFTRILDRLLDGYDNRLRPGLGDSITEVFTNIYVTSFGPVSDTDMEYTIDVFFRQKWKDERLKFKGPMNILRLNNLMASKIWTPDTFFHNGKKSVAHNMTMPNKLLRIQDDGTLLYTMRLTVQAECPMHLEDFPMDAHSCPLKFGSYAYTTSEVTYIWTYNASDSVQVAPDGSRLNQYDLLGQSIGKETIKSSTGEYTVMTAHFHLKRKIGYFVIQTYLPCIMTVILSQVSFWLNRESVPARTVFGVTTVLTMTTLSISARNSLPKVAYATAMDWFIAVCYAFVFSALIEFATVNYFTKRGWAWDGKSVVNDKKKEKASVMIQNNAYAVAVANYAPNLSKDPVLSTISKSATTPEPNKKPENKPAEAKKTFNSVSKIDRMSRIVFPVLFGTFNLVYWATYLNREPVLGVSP
# Sequence (P28472 26-473 partner): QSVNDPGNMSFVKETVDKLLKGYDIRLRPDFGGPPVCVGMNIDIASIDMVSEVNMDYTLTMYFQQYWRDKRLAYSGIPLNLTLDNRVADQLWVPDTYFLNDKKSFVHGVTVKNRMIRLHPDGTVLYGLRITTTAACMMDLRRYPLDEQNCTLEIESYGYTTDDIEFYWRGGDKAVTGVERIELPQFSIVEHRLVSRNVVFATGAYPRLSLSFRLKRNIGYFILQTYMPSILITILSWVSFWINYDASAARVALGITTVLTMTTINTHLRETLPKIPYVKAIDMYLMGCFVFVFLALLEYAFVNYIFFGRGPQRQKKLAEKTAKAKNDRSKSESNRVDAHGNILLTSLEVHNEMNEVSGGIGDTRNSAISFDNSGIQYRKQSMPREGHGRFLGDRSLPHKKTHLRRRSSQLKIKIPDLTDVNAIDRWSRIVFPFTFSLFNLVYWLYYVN
# Sequence (P18507 40-475): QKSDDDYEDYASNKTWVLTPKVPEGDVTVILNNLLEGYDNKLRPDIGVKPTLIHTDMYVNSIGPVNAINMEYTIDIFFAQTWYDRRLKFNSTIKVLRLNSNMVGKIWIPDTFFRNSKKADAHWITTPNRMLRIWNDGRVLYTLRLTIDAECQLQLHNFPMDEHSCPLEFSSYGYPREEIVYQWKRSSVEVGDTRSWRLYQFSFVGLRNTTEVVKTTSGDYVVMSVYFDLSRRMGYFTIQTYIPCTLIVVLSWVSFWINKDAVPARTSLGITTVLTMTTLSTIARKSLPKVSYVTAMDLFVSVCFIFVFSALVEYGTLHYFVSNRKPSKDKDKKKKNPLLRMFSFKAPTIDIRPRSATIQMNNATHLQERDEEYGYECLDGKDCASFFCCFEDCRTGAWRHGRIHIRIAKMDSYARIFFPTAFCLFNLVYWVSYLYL
# ASSAY_NAME: In vitro radioligand binding assay ([3H]Ro15-1788 displacement), α2-GABAAR Ki
Supply the numeric figure in nM, leaving out any unit text.

Here's what some known entries look like.
COMPOUND	MEASUREMENT_TYPE	VALUE_MEASURED
CCCNC(=O)c1c(N)c2cccc(-c3cc(OCc4ccn(C)n4)ccc3F)c2[nH]c1=O [Example 128]	Ki	1.08
CCCNC(=O)c1c(N)c2cccc(-c3nc(C)ccc3F)c2[nH]c1=O [Example 7]	Ki	0.59
CCCNC(=O)c1c(N)c2cccc(-c3nc(OC)ccc3F)c2[nH]c1=O [Example 8]	Ki	0.38
COc1ccncc1-c1cccc2c(N)c(C(=O)NCCCO)c(=O)[nH]c12 [Example 66]	Ki	18.6

Proceed to the following item.
Asked: // map CCCNC(=O)c1c(N)c2cccc(-c3ccncn3)c2[nH]c1=O [Example 36] to recorded Ki (system: human α2β3γ2 GABAARs (benzodiazepine site) (Homo sapiens (Human), UniProt P18507+P47869))
Given back: 3.69
